Data provenance: PubChem BioAssay (NCI)

Tested on: T-47D breast
Assay: NCI-60 one-dose screen, 48 h
Settings: 10 µM unless noted
Compounds without any hit were thinned out: in the full panel of roughly 83,000, 20% have a hit. Calls of active or inactive are those of the source. Rule for the calls: active = growth percent below 10; inactive = the rest.
Field 'call' accepts class 1 = active, class 0 = inactive

Solved entries (count: 10):
CCCCN(CCCC)CC(O)c1ccc(OCc2ccccc2)c2ccccc12 (centres undefined): class 0
Cc1cccc(C[C@H](NC(=O)Nc2ccc(Cl)cc2F)C(=O)N[C@@H]2C(=O)N3C[C@H](O)C[C@H]3C(=O)N3CCN(C)C[C@H]3C(=O)N[C@@H](C)C(=O)N3C[C@H](C)C[C@H]3C(=O)O[C@H]2C)c1: class 0
CCN(CC)CCCNCc1cc(-c2ccccc2)nc2ccccc12: class 0
Cc1ncc(C(=O)Nc2ccc(CN3CCN(C)CC3)c(C(F)(F)F)c2)cc1C#Cc1c(N)ncc2ccc(C#N)cc12: class 0
CCOC(=O)c1nn(C2CCCCO2)c2ccc(NC(=O)CN3CCOCC3)cc12 (centres undefined): class 0
Cc1ccc(S(=O)(=O)Nc2ccccc2)cc1N: class 0
CC(C)=CCC[C@](C)(O)[C@H]1CC[C@]2(C)[C@@H]1CC[C@@H]1[C@@]3(C)CC/C(=N/O)C(C)(C)[C@@H]3CC[C@]12C: class 1
CCOC(=O)C(C(C)=O)c1nc2sc3cc(Cl)c(Cl)cc3n2c(=O)c1C#N (centres undefined): class 0
CCCOc1ccc(-c2nc(-c3ccc(N)cc3)cs2)cc1: class 0
CCOC(=O)c1cnc2ccc(Br)cc2c1Nc1cccc(S(N)(=O)=O)c1: class 0

Data request: Which result was noted for this molecule in the test: C#CCNC(=O)CC[C@@H](C)[C@H]1CC[C@H]2[C@@H]3CC[C@@H]4CC(=O)CC[C@]4(C)[C@H]3CC[C@]12C
Data returned: class 1

Data request: Which result was noted for this molecule in the test: C=C(CC(=O)OC)C(C)=O
Data returned: class 0

Data request: Which result was noted for this molecule in the test: Cc1nc(-c2ccccc2)sc1CC#N
Data returned: class 0

Data request: Which result was noted for this molecule in the test: COC(=O)c1cc2c(=O)[nH]cc3c2c(n1)CCC3
Data returned: class 0

Data request: Which result was noted for this molecule in the test: COc1ccc(/C=C(/C2=NCCN2)n2ccc3ccccc32)cc1
Data returned: class 0
